Values were extracted from ChEMBL document CHEMBL3137667.

Conditions: human
I'd be grateful if you could share measured Hepatotoxicity (severe hepatitis) for these entries.

Recorded Hepatotoxicity (severe hepatitis) (compound Cc1c(C)c2ccc(OCCCN3CCN(Cc4ccc(Cl)cc4)CC3)cc2oc1=O ): 0

The compound listed as CO[C@@H]1O[C@H](CO)[C@H](O)[C@H](O[C@@H]2O[C@@H](C(=O)O)[C@@H](OC)[C@H](O)[C@H]2O)[C@H]1NC(C)=O has a reported Hepatotoxicity (severe hepatitis) of 0

So, N=C(N)c1ccc(/C=C/c2ccc(C(=N)N)cc2)cc1 ? Its Hepatotoxicity (severe hepatitis) was 0

For O=C(O)CCc1nc(-c2ccccc2)c(-c2ccccc2)o1 the compound record lists Hepatotoxicity (severe hepatitis) as 1

In plain terms, CC12CCC(CC1=O)C2(C)C (stereo not given) has a documented Hepatotoxicity (severe hepatitis) of 0

* * *

Conditions: human, Liver
For each record, write down the corresponding Hepatotoxicity (granulomatous hepatitis).
# print the numeric value only

The reported value for Clc1ccccc1CN1CCc2sccc2C1 [TICLOPIDINE] in terms of Hepatotoxicity (granulomatous hepatitis) is 2

Entry CNCCCN1c2ccccc2CCc2ccccc21 [DESIPRAMINE] — recorded Hepatotoxicity (granulomatous hepatitis) = 0

Summary for this compound, O=C1NC(=O)C(c2ccccc2)(c2ccccc2)N1 [PHENYTOIN] : Hepatotoxicity (granulomatous hepatitis) is 5

# Hepatotoxicity (granulomatous hepatitis) (compound: CC1=C(/C=C/C(C)=C/C=C/C(C)=C/CO)C(C)(C)CCC1 [RETINOL] ) is 0

Documented Hepatotoxicity (granulomatous hepatitis) of CC1(C)NC(=O)N(c2ccc([N+](=O)[O-])c(C(F)(F)F)c2)C1=O [NILUTAMIDE] : 0

Hepatotoxicity (granulomatous hepatitis) measured on NNc1nncc2ccccc12 [HYDRALAZINE] = 6

The compound listed as CCn1cc(C(=O)O)c(=O)c2cc(F)c(N3CCNCC3)cc21 [NORFLOXACIN] shows Hepatotoxicity (granulomatous hepatitis) equal to 0

Record [AsH3] [ARSENIC] . Reported Hepatotoxicity (granulomatous hepatitis): 0

Entry OC(Cn1cncn1)(Cn1cncn1)c1ccc(F)cc1F [FLUCONAZOLE] ; Hepatotoxicity (granulomatous hepatitis) = 1

So for N[C@@H]1C[C@H]1c1ccccc1.N[C@H]1C[C@@H]1c1ccccc1 [TRANYLCYPROMINE] , the logged Hepatotoxicity (granulomatous hepatitis) turned out to be 0

What the record says about Clc1cccc(Cl)c1N=C1NCCN1 [CLONIDINE] : Hepatotoxicity (granulomatous hepatitis) is 0

The reported Hepatotoxicity (granulomatous hepatitis) of the compound COc1cc(Cc2cnc(N)nc2N)cc(OC)c1OC [TRIMETHOPRIM] was 0

The compound listed as CC[C@H]1OC(=O)[C@H](C)C(=O)[C@H](C)[C@@H](O[C@@H]2O[C@H](C)C[C@H](N(C)C)[C@H]2O)[C@](C)(OC)C[C@@H](C)C(=O)[C@H](C)[C@H]2N(CCCCn3cnc(-c4cccnc4)c3)C(=O)O[C@]12C [TELITHROMYCIN] has a reported Hepatotoxicity (granulomatous hepatitis) of 0

get_value(item= CCO.CN1CCC[C@H]1c1cccnc1 , readout=Hepatotoxicity (granulomatous hepatitis)) returns 0

Hepatotoxicity (granulomatous hepatitis) reported for this compound Cc1c(C)c2c(c(C)c1O)CC[C@@](C)(CCC[C@H](C)CCC[C@H](C)CCCC(C)C)O2 [ALPHA-TOCOPHEROL] : 0

The reported value for Cl[C@H]1[C@H](Cl)[C@@H](Cl)[C@@H](Cl)[C@H](Cl)[C@H]1Cl [LINDANE] in terms of Hepatotoxicity (granulomatous hepatitis) is 0

Memo: CCOc1ccccc1OCC1CNCCO1 (configuration not stated) [VILOXAZINE] , reported Hepatotoxicity (granulomatous hepatitis): 0

The reported Hepatotoxicity (granulomatous hepatitis) of the compound CC(C)c1cccc(C(C)C)c1O [PROPOFOL] was 0

Value of Hepatotoxicity (granulomatous hepatitis) reported for the compound O=P1(N(CCCl)CCCl)NCCCO1 (configuration not stated) [CYCLOPHOSPHAMIDE ANHYDROUS] is 0

Record Cc1ncc(C[n+]2csc(CCO)c2C)c(N)n1 [THIAMINE ION] . Reported Hepatotoxicity (granulomatous hepatitis): 0

Lookup result for CCCc1cc(=O)[nH]c(=S)[nH]1 [PROPYLTHIOURACIL] ; measured Hepatotoxicity (granulomatous hepatitis): 0

Per the records, this compound ( O=C1Nc2ccc(Cl)cc2C(c2ccccc2)=NC1O (configuration not stated) [OXAZEPAM] ) has Hepatotoxicity (granulomatous hepatitis) equal to 0
